Target: glutathione-S-transferase (GST) tagged LXRbeta LBD (ligand binding domain) (Homo sapiens, UniProt P55055)
Construct: purchased Invitrogen pv4658.pps
Sequence (P55055 222-460 limits assumed): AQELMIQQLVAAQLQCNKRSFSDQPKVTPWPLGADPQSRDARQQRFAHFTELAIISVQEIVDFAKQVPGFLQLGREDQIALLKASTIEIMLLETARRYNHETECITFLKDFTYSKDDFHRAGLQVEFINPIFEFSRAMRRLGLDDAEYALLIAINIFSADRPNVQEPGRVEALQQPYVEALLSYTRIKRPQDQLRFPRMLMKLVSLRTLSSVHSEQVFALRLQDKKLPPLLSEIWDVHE
Experiment: LanthaScreen TR-FRET Liver X Receptor Coactivator Assay, co-activator recruitment to LXRbeta LBD
Type: biochemical
Conditions: potency (Inflection Point, IP), co-activator recruitment to LXRbeta LBD, in relation to T0901317; read-out: LXR beta IP
pEC50: −log10 of the molar value.
# cutoff 8 applies to pEC50; >= gives class 1, < gives class 0

Use the examples below as a reference point.
{"molecule": "CN(C)C(=O)c1ccc(N2CCC(CC3(C)CCN(C(=O)[C@](O)(c4cc(F)cc(Cl)c4)C(F)(F)F)CC3)CC2)nc1Cl", "class_label": "class 1"}
{"molecule": "CN(C)C(=O)c1ccc(N2CCC(CC3(C)CCN(C(=O)[C@](O)(c4cccc(Cl)c4)C(F)(F)F)CC3)CC2)cc1Cl", "class_label": "class 1"}
{"molecule": "CN(C)C(=O)c1ccc(N2CCC(CC3CCN(C(=O)C(C)(C)c4ccccc4)CC3)CC2)cc1Cl", "class_label": "class 0"}
{"molecule": "CN(C)C(=O)c1ccc(N2CCC(CC3CCN(C(=O)[C@](O)(c4ccccc4)C(F)(F)F)C3)CC2)cc1Cl (stereo partly shown)", "class_label": "class 0"}

Query: Evaluate "CN(C)C(=O)c1ccc(N2CCC(CC3CCN(C(=O)[C@@](O)(c4cccc(F)c4)C(F)(F)F)CC3)CC2)nc1Cl" : pEC50 at minimum 8?
Reply: class 0

Query: Evaluate "Cc1cc(N2CCC(CC3CCN(C(=O)[C@](O)(c4ccccc4)C(F)(F)F)CC3)CC2)ncc1C(=O)N(C)C" : pEC50 at minimum 8?
Reply: class 0

Query: Evaluate "CCOc1cccc([C@@](O)(C(=O)N2CCC(CC3CCN(c4ccc(C(=O)N(C)C)c(C5CC5)n4)CC3)CC2)C(F)(F)F)c1" : pEC50 at minimum 8?
Reply: class 0

Query: Evaluate "CN(C)C(=O)c1ccc(N2CCC(CC3(C)CCN(C(=O)[C@](O)(c4cc(F)cc(Cl)c4)C(F)(F)F)CC3)CC2)cc1Cl" : pEC50 at minimum 8?
Reply: class 1

Query: Evaluate "Cc1cc(N2CCC(CC3CCN(C(=O)[C@](O)(c4cc(Cl)cc(Cl)c4)C(F)(F)F)CC3)CC2)ccc1C(=O)N(C)C" : pEC50 at minimum 8?
Reply: class 0

Query: Evaluate "CCc1cccc([C@@](O)(C(=O)N2CCC(C)(CC3CCN(c4ccc(C(=O)N(C)C)c(C)c4)CC3)CC2)C(F)(F)F)c1" : pEC50 at minimum 8?
Reply: class 0

Query: Evaluate "CNC(=O)c1ccc(N2CCC(CC3CCN(C(=O)[C@](O)(c4cccc(C(F)(F)F)c4)C(F)(F)F)CC3)CC2)nc1Cl" : pEC50 at minimum 8?
Reply: class 0

The measurements presented in this section are drawn from patent US10752587B2.
